Numbers sourced from patent US12502386B2.

Kindly supply the reported IC50 values for the records listed here.
# System: D341 Med
# experiment_summary: CellTiter-Glo cell viability, brain tumor cell line D341 Med
# Type: cell-based
# measurement_conditions: Homo sapiens, 72 h, cerebellar medulloblastoma cell, 3 days of culture, read-out: inhibitory effect on D341 Med (IC50)
Give bare numbers, in nM.

Before answering, review these 6 worked examples.
# compound, units_of_measure, IC50
rows = [
    ("COc1ccc2c(c1OC)CN1CCc3cc4c(cc3C1=C2Cc1ccc(OC(F)(F)F)cc1)OCO4 [AB31866]", "nM", 1540),
    ("COc1ccc2c(c1OC)C(C(Cl)(Cl)Cl)N1CCc3cc4c(cc3C1=C2CCCc1ccccc1)OCO4 (stereo not drawn) [AB35417]", "nM", 880),
    ("C1=C2c3cc4c(cc3CCN2C(C2CCCC2)c2c1ccc1c2OCO1)OCO4 (stereo not drawn) [AB36423]", "nM", 1550),
    ("CCCOc1c(OC)ccc2c1CN1CCc3cc4c(cc3C1=C2)OCO4 [AB35536]", "nM", 1060),
    ("COc1ccc2c(c1OCCCCOc1ccccc1)C(C(Cl)(Cl)Cl)N1CCc3cc4c(cc3C1=C2)OCO4 (stereo not drawn) [AB35476]", "nM", 890),
    ("COc1ccc2c(c1OCCCF)CN1CCc3cc4c(cc3C1=C2)OCO4 [AB35590]", "nM", 2780),
]

Hi there! I need IC50 for each item below, if you can.
1. COc1ccc2c(c1OCCCCl)CN1CCc3cc4c(cc3C1=C2)OCO4 [AB35543]
2. COc1ccc2c(c1N1CCC(C)CC1)C(C1CCCC1)N1CCc3cc4c(cc3C1=C2)OCO4 (stereo not drawn) [AB35510]
3. COc1ccc2c(c1OCCCCN)C(C)N1CCc3cc4c(cc3C1=C2)OCO4 (stereo not drawn) [AB35429]

## Result
1680
760
2020

---

# System: sh-DNMT1 NCI-H82 cell
# experiment_summary: CellTiter-Glo cell viability, sh-DNMT1 NCI-H82 cell (DNMT1 knocked down)
# Format: cell-based, human
# measurement_conditions: Homo sapiens, NCI-H82, NCI-H82 with DNMT1 knocked down by shRNA, intracellular ATP, read-out: inhibitory effect on sh-DNMT1 NCI-H82 (IC50)
Kindly supply the reported pIC50 values for the records listed here.
Numbers only, as −log10 of the molar value.

# molecule, recorded_value
measured = [
    ("COc1ccc2c(c1OCCCCl)C(C(Cl)(Cl)Cl)N1CCc3cc4c(cc3C1=C2)OCO4 (centres unmarked) [AB35441]", 5.53),
    ("CCCCOc1c(OC)ccc2c1C(C(Cl)(Cl)Cl)N1CCc3cc4c(cc3C1=C2)OCO4 (centres unmarked) [AB35494]", 5.71),
    ("COc1ccc2c(c1OCCCCl)C(C)N1CCc3cc4c(cc3C1=C2)OCO4 (centres unmarked) [AB35456]", 5.07),
    ("COc1ccc2c(c1OC)C(C1CCCC1)N1CCc3cc4c(cc3C1=C2CCc1ccccc1)OCO4 (centres unmarked) [AB35448]", 5.54),
    ("C=CCOc1c(OC)ccc2c1C(C(Cl)(Cl)Cl)N1CCc3cc4c(cc3C1=C2)OCO4 (centres unmarked) [AB35534]", 5.42),
    ("CCCOc1c(OC)ccc2c1C(C(Cl)(Cl)Cl)N1CCc3cc4c(cc3C1=C2)OCO4 (centres unmarked) [AB35506]", 5.60),
    ("COc1ccc2c(c1N1CCC(C)CC1)CN1CCc3cc4c(cc3C1=C2)OCCO4 [AB35545]", 5.81),
]

Proceeding to the next molecule to report its pIC50.
The value of pIC50 recorded for [2H]C1c2c(ccc(OC)c2OC)C=C2c3cc4c(cc3CCN21)OCO4 (centres unmarked) [AB36415] when tested on sh-DNMT1 NCI-H82 cell reads 5.44

---

# Tested on: CFPAC-1
# experiment_summary: CellTiter-Glo cell viability, tumor cell line CFPAC-1
# Format: cell-based
# measurement_conditions: CFPAC-1, 72 h; human pancreatic cancer cell; 3 days of culture; read-out: inhibitory effect on CFPAC-1 (IC50)
# Protocol: Cell viability was detected using the Promega CellTiter-Glo kit, cell viability was determined by directly measuring intracellular ATP content. In the experiment, the IC50 value of the compounds prepared in the Examples of the present invention on various tumor cell lines was detected. Each tumor cell was cultured in relevant medium. […] After 3 days of culture, the relevant IC50 (50% inhibiting concentration) was measured. […]
Kindly supply the reported IC50 values for the records listed here.

# compound, system_under_test, recorded_value
records = [
    ("COc1ccc2c(c1OC)C(C(Cl)(Cl)Cl)N1CCc3cc4c(cc3C1=C2CCCc1ccccc1)OCO4 (stereo not drawn) [AB35417]", "CFPAC-1", "9.88 µM"),
]

Hi there! I need IC50 for each item below, if you can.
1. COc1ccc2c(c1OC)CN1CCc3cc4c(cc3C1=C2Cc1ccc(OC(F)(F)F)cc1)OCO4 [AB31866]
2. COc1ccc2c(c1OCCCCl)C(C1CCCC1)N1CCc3cc4c(cc3C1=C2)OCO4 (stereo not drawn) [AB35434]
3. COc1ccc2c(c1N1CCC(C)CC1)C(C1CCCC1)N1CCc3cc4c(cc3C1=C2)OCO4 (stereo not drawn) [AB35510]
4. COc1ccc2c(c1OCCCCOc1ccccc1)C(C(Cl)(Cl)Cl)N1CCc3cc4c(cc3C1=C2)OCO4 (stereo not drawn) [AB35476]
5. CCCOc1c(OC)ccc2c1CN1CCc3cc4c(cc3C1=C2)OCO4 [AB35536]
6. COc1ccc2c(c1OCCCF)CN1CCc3cc4c(cc3C1=C2)OCO4 [AB35590]

## Result
1. 12.4 µM
2. > 30 µM
3. 13.1 µM
4. 14.2 µM
5. 9.96 µM
6. 15.3 µM

Hi there! I need IC50 for each item below, if you can.
1. COc1ccc2c(c1OCCCCN)C(C)N1CCc3cc4c(cc3C1=C2)OCO4 (stereo not drawn) [AB35429]
2. [2H]C1c2c(ccc(OC)c2OCCC)C=C2c3cc4c(cc3CCN21)OCO4 (stereo not drawn) [AB36437]

## Result
["13.4 µM", "14.4 µM"]

---

# Test system: D341 Med
# experiment_summary: CellTiter-Glo cell viability, brain tumor cell line D341 Med
# Format: cell-based
# measurement_conditions: Homo sapiens, 72 h, cerebellar medulloblastoma cell, 3 days of culture, read-out: inhibitory effect on D341 Med (IC50)
Criterion: IC50 strictly less than 2 µM. Met: rule met. Not met: rule not met.

## Task Is it true that IC50 reported for COc1ccc2c(c1OC)C(C1CCCCC1)N1CCc3cc4c(cc3C1=C2)OCO4 (centres unmarked) is less than 2 µM?
## Result rule met

## Task Is it true that IC50 reported for [2H]C1c2c(ccc(OC)c2OCCC)C=C2c3cc4c(cc3CCN21)OCO4 (centres unmarked) is less than 2 µM?
## Result rule not met

---

# Tested on: Con-NCI-H82 cell
# experiment_summary: CellTiter-Glo cell viability, Con-NCI-H82 cell (empty-vector control)
# Format: cell-based, human
# measurement_conditions: Homo sapiens, NCI-H82, NCI-H82 transfected with empty virus vector (control), intracellular ATP, read-out: inhibitory effect on Con-NCI-H82 (IC50)
pIC50: −log10 of the molar value.
pIC50 below 6 gives Not met; pIC50 at or above it gives Met.

# compound, class
records = [
    ("COc1ccc2c(c1OCCCCCCBr)C(C1CCCC1)N1CCc3cc4c(cc3C1=C2)OCO4 (stereo not drawn)", "Not met"),
]

## Task pIC50 >= 6 for COc1ccc2c(c1OC)C(c1ccccc1)N1CCc3cc4c(cc3C1=C2)OCO4 (stereo not drawn) ?
## Result Not met

## Task pIC50 >= 6 for COc1ccc2c(c1OC)C(C1CCC1)N1CCc3cc4c(cc3C1=C2)OCO4 (stereo not drawn) ?
## Result Not met

---

# Test system: CFPAC-1
# experiment_summary: CellTiter-Glo cell viability, tumor cell line CFPAC-1
# Type: cell-based
# measurement_conditions: CFPAC-1, 72 h; human pancreatic cancer cell; 3 days of culture; read-out: inhibitory effect on CFPAC-1 (IC50)
measured_endpoint: pIC50
Answers are plain numbers, as −log10 of the molar value.

# molecule, pIC50
rows = [
    ("COc1ccc2c(c1OCCCBr)C(C1CCCC1)N1CCc3cc4c(cc3C1=C2)OCO4 (stereo not drawn) [AB35430]", 4.92),
    ("CCCOc1c(OC)ccc2c1C(C(Cl)(Cl)Cl)N1CCc3cc4c(cc3C1=C2)OCO4 (stereo not drawn) [AB35506]", 4.85),
]

Hi there! I need pIC50 for each item below, if you can.
1. COc1ccc2c(c1OCCCCl)CN1CCc3cc4c(cc3C1=C2)OCO4 [AB35543]
2. CCCC1=C2c3cc4c(cc3CCN2C(C2CCCC2)c2c1ccc(OC)c2OC)OCO4 (stereo not drawn) [AB35504]
3. C1=C2c3cc4c(cc3CCN2C(C2CCCC2)c2c1ccc1c2OCO1)OCO4 (stereo not drawn) [AB36423]
4. [2H]C([2H])([2H])Oc1c(OC)ccc2c1C(C1CCCC1)N1CCc3cc4c(cc3C1=C2)OCO4 (stereo not drawn) [AB36501]

## Result
4.99
4.59
4.84
5.01

Hi there! I need pIC50 for each item below, if you can.
1. COc1ccc2c(c1OC)C(C1CCCC1)N1CCc3cc4c(cc3C1=C2CCCc1ccccc1)OCO4 (stereo not drawn) [AB35436]
2. COc1ccc2c(c1OC/C=C(\C)CCC=C(C)C)C(C(Cl)(Cl)Cl)N1CCc3cc4c(cc3C1=C2)OCO4 (stereo not drawn) [AB35405]
3. COc1ccc2c(c1OC)C(C1CCC1)N1CCc3cc4c(cc3C1=C2)OCO4 (stereo not drawn) [AB36447]
4. COc1ccc2c(c1OCCCCl)C(C(Cl)(Cl)Cl)N1CCc3cc4c(cc3C1=C2)OCO4 (stereo not drawn) [AB35441]

## Result
4.94
4.74
4.70
4.91

Hi there! I need pIC50 for each item below, if you can.
1. C=CCOc1c(OC)ccc2c1C(C(Cl)(Cl)Cl)N1CCc3cc4c(cc3C1=C2)OCO4 (stereo not drawn) [AB35534]
2. CCCOc1c(OC)ccc2c1C(C1CCCC1)N1CCc3cc4c(cc3C1=C2)OCO4 (stereo not drawn) [AB35512]

## Result
4.77
4.76
